Origin of measurements: ChEMBL document CHEMBL1135810

System: Colon 26
experimentSummary: Effective concentration required to give 50% cell kill with 4 J/cm**2 of light.(Dark and light induced toxicity towards murine colon carcinoma cell line(COLO-26 cells))
Assay type: functional, cell-based
assayContext: Mus musculus, Colon 26, light or radiation study
assayReadout: EC50 (nM)
Please respond with the number in nM and leave the unit unwritten.

Exercise: What measured EC50 goes with "CN(C)c1ccc(-c2c3nc(c(-c4ccc(S(=O)(=O)O)cc4)c4ccc(s4)c(-c4ccc(S(=O)(=O)O)cc4)c4nc(c(-c5ccc(N(C)C)cc5)c5ccc2s5)C=C4)C=C3)cc1" ?
Key: 640

Exercise: What value of EC50 has been reported for the following compound? "O=S(=O)(O)c1ccc(-c2c3nc(c(-c4ccc(F)cc4)c4ccc(s4)c(-c4ccc(F)cc4)c4nc(c(-c5ccc(S(=O)(=O)O)cc5)c5ccc2[nH]5)C=C4)C=C3)cc1"
Key: 2100
